- target-desc: AdipoR1 (Homo sapiens, UniProt Q96A54)
- Sequence (Q96A54 whole entry): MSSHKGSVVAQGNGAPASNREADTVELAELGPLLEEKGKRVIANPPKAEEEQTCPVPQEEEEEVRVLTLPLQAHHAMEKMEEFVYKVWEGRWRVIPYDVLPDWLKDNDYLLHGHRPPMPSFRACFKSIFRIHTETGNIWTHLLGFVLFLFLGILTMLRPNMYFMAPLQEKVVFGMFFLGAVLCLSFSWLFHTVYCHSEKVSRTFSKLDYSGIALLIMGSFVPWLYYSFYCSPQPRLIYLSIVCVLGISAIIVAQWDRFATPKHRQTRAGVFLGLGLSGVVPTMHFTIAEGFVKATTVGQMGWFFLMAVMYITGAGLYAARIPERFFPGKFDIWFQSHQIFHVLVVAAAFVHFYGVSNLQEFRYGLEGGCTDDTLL
- assay-procedure: Measurement of AMPK phosphorylation ability (Assay 1), HEK 293T cells, Western blotting
- Type: cell-based
- Parameters: HEK 293T cells (ATCC; CRL-3216, medium; host or cells: HEK 293T
- test-parameters: 50 μM, 10 minutes
observable: pAMPK/AMPK (%)

| molecule | target-desc | pAMPK/AMPK (%) |
| --- | --- | --- |
| COc1ccc(CN2CCC(NC(=O)COc3ccc([N+](=O)[O-])cc3)CC2)cc1F | AdipoR1 (Homo sapiens, UniProt Q96A54) | 60.46 |

[1] O=C(NCCC(=O)N1CCN(Cc2cccc(O)c2)CC1)c1ccc2ccccc2c1
[2] CC(=O)c1ccc(OCC(=O)NC2CCN(Cc3ccccc3)CC2C)cc1 (stereo not drawn)
Param metric = pAMPK/AMPK (%); output whichever of 1 , 2 has the minimum value. Reply briefly: the label of your chosen item. 2

###

- target-desc: AdipoR1 (Mus musculus)
- Construct: C2C12 cells (ATCC; CRL-1772, medium; host or cells: differentiated C2C12
- Sequence (Q91VH1 whole entry): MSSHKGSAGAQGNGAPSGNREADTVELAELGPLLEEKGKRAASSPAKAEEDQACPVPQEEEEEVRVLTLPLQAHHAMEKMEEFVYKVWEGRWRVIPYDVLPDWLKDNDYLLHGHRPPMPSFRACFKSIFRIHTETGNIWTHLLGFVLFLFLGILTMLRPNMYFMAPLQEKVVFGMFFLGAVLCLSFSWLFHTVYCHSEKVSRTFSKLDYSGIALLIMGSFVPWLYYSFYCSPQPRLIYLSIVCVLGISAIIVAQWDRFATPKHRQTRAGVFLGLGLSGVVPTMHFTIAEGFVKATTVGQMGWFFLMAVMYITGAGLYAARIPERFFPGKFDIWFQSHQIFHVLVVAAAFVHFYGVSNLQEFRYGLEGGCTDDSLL
- assay-procedure: Measurement of AMPK phosphorylation ability (Assay 1), differentiated C2C12 cells, Western blotting
- Type: cell-based
- test-parameters: 10 μM, 10 minutes
observable: pAMPK/AMPK (%)

| smiles-structure | value-units | test-value |
| --- | --- | --- |
| COc1cccc(NC(=O)c2ccc(CN3CCN(Cc4ccccc4)CC3)cc2)c1 | % | 81.05 |
| C#CCN(Cc1ccco1)C(=O)c1ccc(OC2CCN(Cc3ccccn3)CC2)cc1 | % | 86.36 |
| O=C(COc1ccc(C(=O)c2ccccc2)cc1)NC1CCN(Cc2ccccc2)CC1 | % | 84.33 |
| CC(C)(C)CN1CCC(Oc2ccc(C(=O)NCCc3ccncc3)cc2Cl)CC1 | % | 83.71 |
| COc1ccccc1CN1CCC(Oc2ccc(C(=O)NC3CCCC3)cc2Cl)CC1 | % | 91.22 |
| COc1ccccc1N1CCN(CCC(=O)Nc2cccc(Cl)c2)CC1 | % | 88.87 |

###

- target-desc: AdipoR1 (Homo sapiens)
- assay-procedure: Measurement of AMPK phosphorylation ability (Assay 2), HEK 293T cells with unrelated or AdipoR1 siRNA
- Type: cell-based
- Parameters: HEK 293T cells (ATCC; CRL-3216, medium; host or cells: HEK 293T
- test-parameters: unrelated siRNA
observable: pAMPK/AMPK (ratio) siRNA, unrelated siRNA

| compound | value-units | test-value |
| --- | --- | --- |
| NC(=O)c1ccc(OCC(=O)NC2CCN(Cc3ccc(Br)cc3)CC2)cc1 | ratio | 2.34 |
| O=C(COc1ccc(Cl)cc1)NC1CCN(Cc2ccc(Cl)c(Cl)c2)CC1 | ratio | 2.88 |
| O=C(COc1ccc(Oc2ccccc2)cc1)NC1CCN(Cc2ccccc2)CC1 | ratio | 2.52 |
| O=C(COc1ccc(F)cc1)NC1CCN(Cc2ccc(Cl)c(Cl)c2)CC1 | ratio | 3.38 |
| COc1ccc(OCC(=O)NC2CCN(Cc3ccc(Cl)c(Cl)c3)CC2)cc1 | ratio | 3.11 |
| Cc1ccc(OCC(=O)NC2CCN(Cc3ccc(Cl)c(Cl)c3)CC2)cc1 | ratio | 2.49 |
| O=C(COc1ccc(C(=O)c2ccccc2)cc1)NC1CCN(Cc2ccc(Cl)cc2)CC1 | ratio | 2.51 |
| COc1cc(C(C)=O)ccc1OCC(=O)NC1CCN(Cc2ccc(Cl)c(Cl)c2)CC1 | ratio | 3.27 |
| COc1ccc(CN2CCC(NC(=O)COc3ccc(C(F)(F)F)cc3)CC2)cc1F | ratio | 3.38 |
| CCOc1ccc(OCC(=O)NC2CCN(Cc3cccc(C(F)(F)F)c3)CC2)cc1 | ratio | 2.25 |
| CCc1ccc(OCC(=O)NC2CCN(C(C)c3ccccc3)CC2)cc1 (centres unmarked) | ratio | 3.17 |

###

- target-desc: AdipoR1 (Homo sapiens)
- assay-procedure: Measurement of AMPK phosphorylation ability (Assay 1), HEK 293T cells, Western blotting
- Assay type: cell-based
- Parameters: HEK 293T cells (ATCC; CRL-3216, medium; host or cells: HEK 293T
- test-parameters: 25 μM, 10 minutes
observable: pAMPK/AMPK (%)

| smiles-structure | observable | value-units | test-value |
| --- | --- | --- | --- |
| CCOc1ccc(OCC(=O)NC2CCN(Cc3cccc(C(F)(F)F)c3)CC2)cc1 | pAMPK/AMPK (%) | % | 80.20 |
| COc1ccccc1CN1CCN(C(=O)CCNC(=O)c2ccc3ccccc3c2)CC1 | pAMPK/AMPK (%) | % | 78.18 |
| CC(C)c1ccc(CN2CCN(C(=O)CCNC(=O)c3ccc([N+](=O)[O-])cc3)CC2)cc1 | pAMPK/AMPK (%) | % | 80.29 |

###

- Tested on: AdipoR1
- assay-procedure: Measurement of AMPK phosphorylation ability (Assay 2), C2C12 cells with unrelated or AdipoR1 siRNA
- Format: cell-based, Mouse
- test-parameters: unrelated siRNA
observable: pAMPK/AMPK (ratio) siRNA, unrelated siRNA
Only the number, expressed in ratio, is required.

| smiles-structure | target-desc | test-value |
| --- | --- | --- |
| O=C(NCC[C@@H]1C[C@@H]2C=C[C@H]1C2)c1ccc(OC2CCN(Cc3ccccn3)CC2)cc1 | AdipoR1 | 3.79 |

Please report the recorded pAMPK/AMPK (ratio) siRNA, unrelated siRNA for O=C(NCc1ccncc1)c1ccc(OC2CCN(Cc3ccoc3)CC2)cc1 . 2.06

Please report the recorded pAMPK/AMPK (ratio) siRNA, unrelated siRNA for COc1ccc(C(=O)N2CCN(Cc3ccc(C(F)(F)F)cc3)CC2)cc1OC . 3.25

###

- target-desc: AdipoR1 (Homo sapiens)
- assay-procedure: Measurement of AMPK phosphorylation ability (Assay 1), HEK 293T cells, Western blotting
- Format: cell-based
- Set-up: HEK 293T cells (ATCC; CRL-3216, medium; host or cells: HEK 293T
- test-parameters: 50 μM, 10 minutes
- Method: The AMPK phosphorylation ability of the respective compounds according to the present invention was measured by using differentiated C2C12 cells or HEK 293T cells. […] The X-ray film was scanned to take the image, for which the band was measured by using the image analysis software “Image J” to determine the respective amounts of pAMPK and AMPK.
observable: pAMPK/AMPK (%)

| compound | observable | test-value |
| --- | --- | --- |
| COc1ccccc1CN1CCN(C(=O)CCNC(=O)c2ccccc2C)CC1 [Compound 49] | pAMPK/AMPK (%) | 34.07 |
| NC(=O)c1ccc(OCC(=O)NC2CCN(Cc3ccc(Br)cc3)CC2)cc1 [Compound 21] | pAMPK/AMPK (%) | 83.12 |

[1] O=C(COc1ccc(Oc2ccccn2)cc1)NC1CCN(Cc2ccccc2)CC1 [Compound 45]
[2] COc1ccccc1CN1CCN(C(=O)CCNC(=O)c2ccc(Cl)cc2)CC1 [Compound 57]
Param metric = pAMPK/AMPK (%); output whichever of 1 , 2 has the minimum value. Reply briefly: the label of your chosen item. 2

[P] CC(C)c1ccc(CN2CCN(C(=O)CCNC(=O)c3ccc([N+](=O)[O-])cc3)CC2)cc1 [Compound 64]
[Q] CC1CN(Cc2ccccc2)CCC1NC(=O)COc1ccc(N2CCCC2=O)cc1 (stereo not shown) [Compound 26]
Param metric = pAMPK/AMPK (%); output whichever of P , Q has the minimum value. Reply briefly: the label of your chosen item. Q

[a] O=C(NCCC(=O)N1CCN(Cc2ccc(F)cc2Cl)CC1)c1ccc(Cl)cc1 [Compound 55]
[b] CCOc1ccc(OCC(=O)NC2CCN(Cc3ccccc3C)CC2)cc1 [Compound 39]
Which shows the larger pAMPK/AMPK (%) value: a or b ? Reply briefly: the label of your chosen item. a

###

- System: AdipoR1
- assay-procedure: Measurement of AMPK phosphorylation ability (Assay 2), C2C12 cells with unrelated or AdipoR1 siRNA
- Assay type: cell-based, Mouse
- test-parameters: unrelated siRNA
Entries and their pAMPK/AMPK (ratio) siRNA, unrelated siRNA
Only the number, expressed in ratio, is required.

Please report the recorded pAMPK/AMPK (ratio) siRNA, unrelated siRNA for COCCNC(=O)c1ccc(OC2CCN(Cc3cc(OC)ccc3F)CC2)c(Cl)c1 . 2.38

Please report the recorded pAMPK/AMPK (ratio) siRNA, unrelated siRNA for C#CCN(Cc1ccco1)C(=O)c1ccc(OC2CCN(Cc3ccccn3)CC2)cc1 . 3.10

Please report the recorded pAMPK/AMPK (ratio) siRNA, unrelated siRNA for COCCNC(=O)c1ccc(OC2CCN(Cc3cc4ccccc4o3)CC2)c(Cl)c1 . 1.67

Please report the recorded pAMPK/AMPK (ratio) siRNA, unrelated siRNA for COCCNC(=O)c1ccc(OC2CCN([C@@H](C)COc3ccccc3)CC2)c(Cl)c1 . 2.36

Please report the recorded pAMPK/AMPK (ratio) siRNA, unrelated siRNA for CC(C)(C)CN1CCC(Oc2ccc(C(=O)NCCc3ccncc3)cc2Cl)CC1 . 2.13

Please report the recorded pAMPK/AMPK (ratio) siRNA, unrelated siRNA for CCOCCCNC(=O)c1ccc(OC2CCN(CC(C)(C)C)CC2)c(Cl)c1 . 1.52
